Record: IC50 reported on ErbB2 WT (Homo sapiens (Human)).
Sequence (P04626 23-1255): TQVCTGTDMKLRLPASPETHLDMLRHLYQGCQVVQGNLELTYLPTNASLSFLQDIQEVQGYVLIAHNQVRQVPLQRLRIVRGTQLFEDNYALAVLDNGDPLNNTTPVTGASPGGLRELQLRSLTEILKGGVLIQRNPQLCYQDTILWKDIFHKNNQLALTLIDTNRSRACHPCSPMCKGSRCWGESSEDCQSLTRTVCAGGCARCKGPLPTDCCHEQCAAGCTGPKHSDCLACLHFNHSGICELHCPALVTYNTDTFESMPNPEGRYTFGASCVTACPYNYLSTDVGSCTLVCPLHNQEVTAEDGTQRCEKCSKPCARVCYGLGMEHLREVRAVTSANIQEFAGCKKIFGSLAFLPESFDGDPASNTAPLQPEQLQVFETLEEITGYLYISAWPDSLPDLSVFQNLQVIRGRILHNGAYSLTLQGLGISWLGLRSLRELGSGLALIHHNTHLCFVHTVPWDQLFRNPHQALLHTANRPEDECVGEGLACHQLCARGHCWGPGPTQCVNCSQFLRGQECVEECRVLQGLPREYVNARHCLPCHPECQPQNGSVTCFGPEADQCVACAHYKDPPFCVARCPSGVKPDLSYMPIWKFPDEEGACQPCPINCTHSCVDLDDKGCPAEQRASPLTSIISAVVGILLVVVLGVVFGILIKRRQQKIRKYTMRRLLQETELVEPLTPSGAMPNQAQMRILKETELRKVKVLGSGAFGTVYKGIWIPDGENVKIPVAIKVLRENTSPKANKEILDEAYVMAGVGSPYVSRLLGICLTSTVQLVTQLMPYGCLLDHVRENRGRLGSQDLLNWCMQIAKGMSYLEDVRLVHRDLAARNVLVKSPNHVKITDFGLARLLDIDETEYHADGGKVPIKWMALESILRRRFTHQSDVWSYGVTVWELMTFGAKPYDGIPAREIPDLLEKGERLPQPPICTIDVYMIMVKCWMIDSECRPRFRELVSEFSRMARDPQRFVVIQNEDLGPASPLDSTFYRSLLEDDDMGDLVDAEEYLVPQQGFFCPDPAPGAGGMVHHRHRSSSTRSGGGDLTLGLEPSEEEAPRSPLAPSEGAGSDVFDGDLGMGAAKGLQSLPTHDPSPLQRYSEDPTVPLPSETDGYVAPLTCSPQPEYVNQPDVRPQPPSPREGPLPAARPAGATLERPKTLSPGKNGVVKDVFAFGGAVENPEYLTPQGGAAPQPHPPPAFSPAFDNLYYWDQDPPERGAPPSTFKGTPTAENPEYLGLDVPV

{"columns": ["compound-smiles", "system", "unit-descriptor", "IC50"],
 "data": [
  ["COC[C@H](C)Nc1ncc2ncnc(Nc3ccc(Oc4ccc5c(c4)ncn5C)c(C)c3)c2n1", "ErbB2 WT (Homo sapiens (Human))", "nM", 112],
  ["Cc1cc(Nc2ncnc3cnc(N4CC5(CC5)CO4)nc23)ccc1Oc1ccc2c(c1)ncn2C", "ErbB2 WT (Homo sapiens (Human))", "nM", 109],
  ["Cc1cc(Nc2ncnc3cnc(N4CC(COC(F)F)C4)nc23)ccc1Oc1ccc2c(c1)ncn2C", "ErbB2 WT (Homo sapiens (Human))", "nM", 142],
  ["Cc1cc(Nc2ncnc3cnc(N4CC[C@@H](C)C4=O)nc23)ccc1Oc1ccc2c(c1)ncn2C", "ErbB2 WT (Homo sapiens (Human))", "nM", 79.3],
  ["Cc1cc(Nc2ncnc3cnc(N4C[C@H]5COC[C@H]5C4)nc23)ccc1Oc1ccc2c(c1)ncn2C", "ErbB2 WT (Homo sapiens (Human))", "nM", 61.3],
  ["COC[C@@H]1CCN1c1ncc2ncnc(Nc3ccc(Oc4ccn5ncnc5c4)c(Cl)c3)c2n1", "ErbB2 WT (Homo sapiens (Human))", "nM", 105],
  ["Cc1cc(Nc2ncnc3cnc(N4CCC[C@@H]5COC[C@@H]54)nc23)ccc1Oc1ccc2c(c1)ncn2C", "ErbB2 WT (Homo sapiens (Human))", "nM", 71.1],
  ["Cn1cnc2cc(Oc3ccc(Nc4ncnc5cnc(N6CCN(CC(F)F)CC6)nc45)cc3Cl)ccc21", "ErbB2 WT (Homo sapiens (Human))", "nM", 124],
  ["Cc1cc(Nc2ncnc3cnc(NC4CCC4)nc23)ccc1Oc1ccc2c(c1)ncn2C", "ErbB2 WT (Homo sapiens (Human))", "nM", 85.9]
]}

====

system: ErbB2 WT (Homo sapiens (Human))
The label YES is reserved for IC50 strictly under 200 nM; NO covers values equal to or above it.

{"columns": ["molecule", "classification"],
 "data": [
  ["Cc1cc(Nc2ncnc3cnc(N4CC5CC5(C)C4)nc23)ccc1Oc1ccc2c(c1)ncn2C (centres unmarked)", "NO"],
  ["COc1ncc2ncnc(Nc3ccc(Oc4ccc5c(C)onc5c4)c(C)c3)c2n1", "NO"],
  ["COC[C@@H](C)Nc1ncc2ncnc(Nc3ccc(Oc4ccc5c(c4)ncn5C)c(C)c3)c2n1", "YES"],
  ["Clc1cc(Nc2ncnc3cnc(N4CC[C@@]5(CCOC5)C4)nc23)ccc1Oc1ccn2ncnc2c1", "YES"],
  ["Cc1cc(Nc2ncnc3cnc(O[C@H]4CNCC4(F)F)nc23)ccc1Oc1ccc2c(c1)ncn2C", "NO"],
  ["Cc1cc(Nc2ncnc3cnc(N4CC[C@](C)(O)C4)nc23)ccc1Oc1ccn2ncnc2c1", "YES"],
  ["Cc1cc(Nc2ncnc3cnc(OCC4(F)CN(C)C4)nc23)ccc1Oc1ccc2c(c1)ncn2C", "NO"],
  ["Cc1cc(Nc2ncnc3cnc(N4CCOC[C@H]4C)nc23)ccc1Oc1ccc2c(c1)ncn2C", "YES"]
]}

====

system: UniProt:P04626
test-description: ErbB enzyme assay (CisBio HTRF KinEASE-TK), Assay 2
Type: biochemical
reported-metric: IC50 (nM)

{"columns": ["compound-smiles", "system", "obs-value"],
 "data": [
  ["Cc1cc(Nc2ncnc3cnc(N4C[C@@H](O)C(C)(C)C4)nc23)ccc1Oc1ccc2c(c1)ncn2C", "UniProt:P04626", 130],
  ["Cc1nc(-c2ncc3ncnc(Nc4ccc(Oc5ccc6c(c5)ncn6C)c(C)c4)c3n2)cs1", "UniProt:P04626", 96.9],
  ["Cc1cc(Nc2ncnc3cnc(N4CCC5(COC5)C4)nc23)ccc1Oc1ccc2c(c1)ncn2C", "UniProt:P04626", 93.2]
]}
